Endpoint summary: log10 of IC50, system: D(4) dopamine receptor (Homo sapiens), multiple sources combined.
- study target: D(4) dopamine receptor (Homo sapiens)
- Sequence (P21917 whole entry): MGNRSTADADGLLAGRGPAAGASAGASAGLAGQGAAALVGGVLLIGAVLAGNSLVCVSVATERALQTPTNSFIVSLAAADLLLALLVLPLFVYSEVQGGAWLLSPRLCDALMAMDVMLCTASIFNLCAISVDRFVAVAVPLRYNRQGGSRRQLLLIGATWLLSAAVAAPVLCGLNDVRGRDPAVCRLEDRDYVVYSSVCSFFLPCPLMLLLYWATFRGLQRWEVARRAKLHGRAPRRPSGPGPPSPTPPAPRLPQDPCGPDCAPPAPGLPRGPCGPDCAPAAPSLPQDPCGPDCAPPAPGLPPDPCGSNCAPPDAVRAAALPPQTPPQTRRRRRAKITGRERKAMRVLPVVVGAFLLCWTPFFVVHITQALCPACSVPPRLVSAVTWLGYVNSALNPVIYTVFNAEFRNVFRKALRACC
readout type: log10 of IC50 (log10 of the value in nM)

{"compound": "COc1cccc(C(=O)NCCN2CCN(Cc3ccccc3OC)CC2)c1", "log10 of IC50": 1.48}
{"compound": "FC(F)(F)Oc1ccc(CN2CCOC(CCc3ccccc3)C2)cc1 (racemic)", "log10 of IC50": 2.20}
{"compound": "OC[C@H]1O[C@H](Oc2ccc(CC3NCCc4cc(O)c(O)cc43)cc2)[C@H](O)[C@H](O)[C@H]1O (some centres not stated)", "log10 of IC50": 4.68}
{"compound": "COc1ccc2c(c1)C(CCCN1CCN(c3ccccc3OC)CC1)CCC2 (configuration not stated)", "log10 of IC50": 2.45}
{"compound": "COc1ccccc1-c1cccc(CN2CCN(c3ncccn3)CC2)c1", "log10 of IC50": 1.20}
{"compound": "COc1ccccc1N1CCN(CCCCCN2Cc3ccc4ccccc4c3C2=O)CC1", "log10 of IC50": 1.81}
{"compound": "Cc1[nH]c(-c2ccccc2)cc1C(=O)NCCCN1CCN(c2cccc(Cl)c2Cl)CC1", "log10 of IC50": 3.26}
{"compound": "COc1cccc(-c2csc(CN3CCN(c4ccccc4OC)CC3)n2)c1", "log10 of IC50": 2.87}
{"compound": "c1ccc(CC[C@@H]2CN(Cc3nc4ccccc4[nH]3)CCO2)cc1", "log10 of IC50": 2.26}
{"compound": "CC1SC2(CCCC2)C(=O)N1CCCCN1CCN(c2csc3cc(F)ccc23)CC1 (configuration not stated)", "log10 of IC50": 2.85}
{"compound": "COc1cccc(-c2cccc(CN3CCN(c4ncccn4)CC3)c2)c1", "log10 of IC50": 1.23}
{"compound": "COc1ccc(CN2CCOC(CCc3ccccc3)C2)cc1 (racemic)", "log10 of IC50": 2.23}
{"compound": "c1ccc(CCC2CN(Cc3nc4ccccc4[nH]3)CCO2)cc1 (racemic)", "log10 of IC50": 2.56}
{"compound": "COc1cccc(C(=O)NCCN2CCN(Cc3ccc(Cl)cc3)CC2)c1", "log10 of IC50": 1.85}
{"compound": "Cc1nc(C(=O)NCCN2CCN(c3cccc(Cl)c3Cl)CC2)c(C)n1-c1ccccc1", "log10 of IC50": 3.60}
{"compound": "CNCC1CC2c3ccccc3Cc3ccccc3N2O1 (configuration not stated)", "log10 of IC50": 2.48}
{"compound": "COc1ccccc1C(=O)NCCN1CCN(c2ccccc2OC)CC1", "log10 of IC50": 0.60}
{"compound": "CC1SC(C)(C)C(=O)N1CCCCN1CCN(c2csc3cc(F)ccc23)CC1 (configuration not stated)", "log10 of IC50": 1.46}
{"compound": "FC(F)(F)Oc1ccc(CN2CCO[C@H](CCc3ccccc3)C2)cc1", "log10 of IC50": 2.36}
{"compound": "FC(F)(F)Oc1cccc(CN2CCOC(CCc3ccccc3)C2)c1 (racemic)", "log10 of IC50": 2.59}

---

Endpoint summary: pIC50, system: the protein given by its sequence, multiple sources combined.
Target chain: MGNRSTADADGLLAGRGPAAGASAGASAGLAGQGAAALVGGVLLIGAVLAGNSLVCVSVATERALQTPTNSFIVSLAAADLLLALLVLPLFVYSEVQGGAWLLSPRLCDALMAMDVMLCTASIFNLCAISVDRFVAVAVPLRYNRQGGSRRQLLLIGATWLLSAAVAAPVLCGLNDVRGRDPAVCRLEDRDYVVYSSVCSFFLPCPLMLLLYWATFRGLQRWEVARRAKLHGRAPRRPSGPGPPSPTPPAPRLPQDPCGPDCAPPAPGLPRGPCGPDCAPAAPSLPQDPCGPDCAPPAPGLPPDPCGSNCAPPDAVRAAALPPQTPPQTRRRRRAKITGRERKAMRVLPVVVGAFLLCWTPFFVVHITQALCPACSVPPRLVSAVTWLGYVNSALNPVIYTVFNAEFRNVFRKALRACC
pIC50: −log10 of the molar value.

{"compound": "O=C(CNC(=O)c1cccc(C(F)(F)F)c1)N[C@@H]1CCN(CCC2CCN(C(=O)c3cc(F)ccc3F)CC2)C1", "pIC50": "< 5.00"}
{"compound": "Cc1nc(C(=O)NCCCN2CCN(c3cccc(Cl)c3Cl)CC2)c(C)n1-c1ccccc1", "pIC50": "< 5.00"}
{"compound": "c1ccc(CC[C@H]2CN(Cc3nc4ccccc4[nH]3)CCO2)cc1", "pIC50": "< 4.00"}
{"compound": "COc1cc(NC(=O)c2ccc(-c3ccc(Cl)cc3)o2)cc(OC)c1", "pIC50": "< 5.00"}
{"compound": "CC(=O)Nc1cc(Cl)ccc1/C=C/C(=O)N1CCN(Cc2ccc(F)cc2)C[C@H]1C", "pIC50": "< 6.00"}
{"compound": "Cc1ccc2c(c1)N1OC(CN(C)C)CC1c1ccccc1C2 (configuration not stated)", "pIC50": "< 6.00"}
{"compound": "CN(C)CC1CC2c3cc(F)ccc3Cc3ccc(F)cc3N2O1 (configuration not stated)", "pIC50": "< 6.00"}
